These data points were gathered from PubChem BioAssay AID1259407.

# Test system: CCRIS mutagenicity, Ames/micronucleus/aberration tests
# procedureDetails: CCRIS mutagenicity studies
# experimentalSetup: Test System: AMES SALMONELLA TYPHIMURIUM; Strain/Indicator: TA100; Metabolic Activation: RAT, LIVER, S-9, PHENOBARBITAL; Method: PREINCUBATION
Active and inactive are the calls of the source. How the calls were made is not given here.
Labels: active, inactive

[
  {
    "cpdSmiles": "CC(C)S(=O)(=O)Cl",
    "labelClass": "active"
  },
  {
    "cpdSmiles": "Oc1cc(O)cc(O)c1",
    "labelClass": "inactive"
  },
  {
    "cpdSmiles": "CC(=O)O[C@H]1[C@H]2O[C@H]2C2=CC(=O)[C@]3(C[C@]2(C)[C@H]1C)O[C@]3(C)C=O",
    "labelClass": "inactive"
  }
]

---

# System: CCRIS mutagenicity, Ames/micronucleus/aberration tests
# procedureDetails: CCRIS mutagenicity studies
# experimentalSetup: Test System: AMES SALMONELLA TYPHIMURIUM; Strain/Indicator: TA100; Metabolic Activation: RAT, LIVER, S-9, AROCLOR 1254; Method: STANDARD PLATE
Activity calls are given as the source filed them. How the calls were made is not given here.
Labels: t for active, f for inactive

[
  {
    "molecule": "OO",
    "labelClass": "t"
  },
  {
    "molecule": "C[Si](C)(C)O[Si](C)(C)O[Si](C)(C)C",
    "labelClass": "f"
  },
  {
    "molecule": "CN(C)CCN(Cc1cccs1)c1ccccn1",
    "labelClass": "f"
  },
  {
    "molecule": "Clc1ccc(Cl)nc1",
    "labelClass": "f"
  },
  {
    "molecule": "CN(C)CCC=C1c2ccccc2CCc2ccccc21",
    "labelClass": "f"
  },
  {
    "molecule": "CC(=O)N(O)c1ccccc1",
    "labelClass": "f"
  },
  {
    "molecule": "Cc1c(N)cc([N+](=O)[O-])c(N)c1C",
    "labelClass": "f"
  },
  {
    "molecule": "Nc1ncnc2nc[nH]c12",
    "labelClass": "f"
  },
  {
    "molecule": "CC[n+]1c2ccccc2nc2ccccc21",
    "labelClass": "f"
  },
  {
    "molecule": "O=S1OC[C@@H]2[C@H](CO1)[C@]1(Cl)C(Cl)=C(Cl)[C@@]2(Cl)C1(Cl)Cl (some centres undefined)",
    "labelClass": "f"
  },
  {
    "molecule": "CC1(C)C2CC3OC3(C)C1C2 (centres undefined)",
    "labelClass": "f"
  },
  {
    "molecule": "CC(=O)c1ccc(S(=O)(=O)NC(=O)NC2CCCCC2)cc1",
    "labelClass": "f"
  },
  {
    "molecule": "O=C(Cl)OCC1c2ccccc2-c2ccccc21",
    "labelClass": "f"
  },
  {
    "molecule": "Nc1ncnc2c1ncn2[C@@H]1O[C@H](CO)[C@@H](O)[C@H]1O",
    "labelClass": "f"
  }
]

---

# Tested on: CCRIS mutagenicity, Ames/micronucleus/aberration tests
# procedureDetails: CCRIS mutagenicity studies
# experimentalSetup: Test System: AMES SALMONELLA TYPHIMURIUM; Strain/Indicator: TA98; Metabolic Activation: RAT, LIVER, S-9, AROCLOR 1254 (10%); Method: PREINCUBATION
The source made the active and inactive calls. The rule behind the calls is not given here.
Labels: active, inactive

[
  {
    "cpdSmiles": "NCCCCCCN",
    "testedOn": "CCRIS mutagenicity, Ames/micronucleus/aberration tests",
    "labelClass": "inactive"
  },
  {
    "cpdSmiles": "O=S1(=O)CC=CC1",
    "testedOn": "CCRIS mutagenicity, Ames/micronucleus/aberration tests",
    "labelClass": "inactive"
  },
  {
    "cpdSmiles": "CC(C)CC(=O)CC(C)C",
    "testedOn": "CCRIS mutagenicity, Ames/micronucleus/aberration tests",
    "labelClass": "inactive"
  },
  {
    "cpdSmiles": "CCCCOC(=O)c1ccccc1C(=O)OCCCC",
    "testedOn": "CCRIS mutagenicity, Ames/micronucleus/aberration tests",
    "labelClass": "inactive"
  },
  {
    "cpdSmiles": "Cc1ccc(N)cc1C",
    "testedOn": "CCRIS mutagenicity, Ames/micronucleus/aberration tests",
    "labelClass": "inactive"
  },
  {
    "cpdSmiles": "Nc1cc([N+](=O)[O-])ccc1O",
    "testedOn": "CCRIS mutagenicity, Ames/micronucleus/aberration tests",
    "labelClass": "inactive"
  },
  {
    "cpdSmiles": "COC(C)(C)CC(C)=O",
    "testedOn": "CCRIS mutagenicity, Ames/micronucleus/aberration tests",
    "labelClass": "inactive"
  },
  {
    "cpdSmiles": "C=CC(=O)OCC(C)C",
    "testedOn": "CCRIS mutagenicity, Ames/micronucleus/aberration tests",
    "labelClass": "inactive"
  },
  {
    "cpdSmiles": "CCc1c(Br)c(Br)c(Br)c(Br)c1Br",
    "testedOn": "CCRIS mutagenicity, Ames/micronucleus/aberration tests",
    "labelClass": "inactive"
  },
  {
    "cpdSmiles": "c1ccc(CSCc2ccccc2)cc1",
    "testedOn": "CCRIS mutagenicity, Ames/micronucleus/aberration tests",
    "labelClass": "inactive"
  },
  {
    "cpdSmiles": "CCCCCc1cc(O)cc(O)c1",
    "testedOn": "CCRIS mutagenicity, Ames/micronucleus/aberration tests",
    "labelClass": "inactive"
  },
  {
    "cpdSmiles": "O=C(CCl)c1ccccc1",
    "testedOn": "CCRIS mutagenicity, Ames/micronucleus/aberration tests",
    "labelClass": "inactive"
  },
  {
    "cpdSmiles": "O=C1c2ccccc2C(=O)c2cc(O)ccc21",
    "testedOn": "CCRIS mutagenicity, Ames/micronucleus/aberration tests",
    "labelClass": "active"
  },
  {
    "cpdSmiles": "C=CC(=O)OCCN(C)C",
    "testedOn": "CCRIS mutagenicity, Ames/micronucleus/aberration tests",
    "labelClass": "inactive"
  },
  {
    "cpdSmiles": "O=C(O)CCC(=O)OC[C@@H](NC(=O)C(Cl)Cl)[C@H](O)c1ccc([N+](=O)[O-])cc1",
    "testedOn": "CCRIS mutagenicity, Ames/micronucleus/aberration tests",
    "labelClass": "inactive"
  },
  {
    "cpdSmiles": "C[O+](C)C.[Cl][Sb-]([Cl])([Cl])([Cl])([Cl])[Cl]",
    "testedOn": "CCRIS mutagenicity, Ames/micronucleus/aberration tests",
    "labelClass": "inactive"
  },
  {
    "cpdSmiles": "Nc1cc(Cl)ccc1O",
    "testedOn": "CCRIS mutagenicity, Ames/micronucleus/aberration tests",
    "labelClass": "inactive"
  },
  {
    "cpdSmiles": "COc1cc(-c2ccc(N/N=C3/C(=O)c4c(N)cc(S(=O)(=O)O)cc4C=C3S(=O)(=O)O)c(OC)c2)ccc1N/N=C1/C(=O)c2c(N)cc(S(=O)(=O)O)cc2C=C1S(=O)(=O)O",
    "testedOn": "CCRIS mutagenicity, Ames/micronucleus/aberration tests",
    "labelClass": "inactive"
  },
  {
    "cpdSmiles": "O=C(NO)c1ccccc1",
    "testedOn": "CCRIS mutagenicity, Ames/micronucleus/aberration tests",
    "labelClass": "active"
  },
  {
    "cpdSmiles": "CC1=CC(C)(C)Nc2ccccc21",
    "testedOn": "CCRIS mutagenicity, Ames/micronucleus/aberration tests",
    "labelClass": "inactive"
  }
]

---

# Test system: CCRIS mutagenicity, Ames/micronucleus/aberration tests
# procedureDetails: CCRIS mutagenicity studies
# experimentalSetup: Test System: AMES SALMONELLA TYPHIMURIUM; Strain/Indicator: TA98; Metabolic Activation: NONE; Method: PREINCUBATION
Activity calls are given as the source filed them. No rule for the calls is given here.
Labels: active, inactive

[
  {
    "compound": "O=[N+]([O-])c1ccc(Cl)c([N+](=O)[O-])c1",
    "labelClass": "active"
  },
  {
    "compound": "C=CCc1ccc(O)c(OC)c1",
    "labelClass": "inactive"
  },
  {
    "compound": "Nc1cnc2ccccc2c1",
    "labelClass": "inactive"
  },
  {
    "compound": "CCN1CCN(C(=O)N[C@@H](C(=O)N[C@@H]2C(=O)N3[C@@H]2SC(C)(C)[C@@H]3C(=O)O)c2ccccc2)C(=O)C1=O",
    "labelClass": "inactive"
  },
  {
    "compound": "OCC(CO)(CO)CO",
    "labelClass": "inactive"
  },
  {
    "compound": "[Be]=[O]",
    "labelClass": "inactive"
  },
  {
    "compound": "CCNCCN",
    "labelClass": "inactive"
  },
  {
    "compound": "O=c1n(CC2CO2)c(=O)n(CC2CO2)c(=O)n1CC1CO1 (configuration not stated)",
    "labelClass": "active"
  },
  {
    "compound": "CSCCC=O",
    "labelClass": "inactive"
  },
  {
    "compound": "O=S(=O)(O)OCc1cc2ccccc2c2ccc3ccccc3c12",
    "labelClass": "active"
  },
  {
    "compound": "Nc1ccc(C(=O)O)cc1",
    "labelClass": "inactive"
  },
  {
    "compound": "CCCCCCCCCc1ccc(OP(=O)(Oc2ccccc2)Oc2ccccc2)cc1",
    "labelClass": "inactive"
  },
  {
    "compound": "ClC1C(Br)C(Br)C(Br)C(Br)C1Br (configuration not stated)",
    "labelClass": "inactive"
  },
  {
    "compound": "CCCCCCCCCC[N+](C)(C)Cc1ccccc1",
    "labelClass": "inactive"
  },
  {
    "compound": "CCCCCCCCCCCCCC(=O)O",
    "labelClass": "inactive"
  },
  {
    "compound": "O[C@@H]1[C@H]2O[C@H]2c2c(ccc3c2ccc2ccccc23)[C@H]1O",
    "labelClass": "active"
  },
  {
    "compound": "CO",
    "labelClass": "inactive"
  },
  {
    "compound": "O=C(O)/C=C/C=C/C(=O)O",
    "labelClass": "inactive"
  },
  {
    "compound": "c1ccc2c3c(ccc2c1)-c1cccc2cccc-3c12",
    "labelClass": "inactive"
  },
  {
    "compound": "CCCCOC(=O)c1ccccc1C(=O)OC1CCCCC1",
    "labelClass": "inactive"
  },
  {
    "compound": "CC[C@]1(O)C[C@@H]2CN(CCc3c([nH]c4ccccc34)[C@@](C(=O)OC)(c3cc4c(cc3OC)N(C)[C@H]3[C@@](O)(C(=O)OC)[C@H](OC(C)=O)[C@]5(CC)C=CCN6CC[C@]43[C@@H]65)C2)C1",
    "labelClass": "inactive"
  },
  {
    "compound": "O=[N+]([O-])c1cccc2nc3cccc([N+](=O)[O-])c3nc12",
    "labelClass": "active"
  },
  {
    "compound": "CN1CCCC1=O",
    "labelClass": "inactive"
  },
  {
    "compound": "CNC(=C[N+](=O)[O-])NCCSCc1ccc(CN(C)C)o1",
    "labelClass": "inactive"
  },
  {
    "compound": "CN(C)C(=O)/C=C/c1ccc([N+](=O)[O-])o1",
    "labelClass": "active"
  },
  {
    "compound": "OC1CCCCC1",
    "labelClass": "inactive"
  },
  {
    "compound": "CCOC(=O)OCC",
    "labelClass": "inactive"
  }
]
